Assignment: determine reported melting point for the given compounds.
Where a name gives a salt, the structure may show the parent alone.

Observe how each entry below is paired with its result.
Cl.Clc1ccc(Cl)c(-c2nnnn2Cc2cccnc2)c1    200 to 201 °C
Cc1ccncc1Cn1nnnc1-c1cccc(Cl)c1Cl (as salt: hydrochloride) [Example 29]    154 to 156 °C

Consider the following items and state reported melting point for each.
1. Cc1noc(C)c1Cn1nnnc1-c1cccc(Cl)c1Cl (as salt: hydrochloride) [Example 38]
2. Cc1ncccc1Cn1nnnc1-c1cc(Cl)ccc1Cl [Example 44]
3. Cc1ccnc(C)c1Cn1nnnc1-c1cccc(Cl)c1Cl (as salt: hydrochloride) [Example 30]
4. Brc1ccc(-c2nnnn2Cc2ccccc2)s1 (as salt: hydrochloride) [Example 51]
5. Cc1nc(C)c(Cn2nnnc2-c2cccc(Cl)c2Cl)s1 (as salt: hydrochloride) [Example 36]
6. CCOC(=O)c1nocc1Cn1nnnc1-c1cccc(Cl)c1Cl (as salt: hydrochloride) [Example 34]
7. Cc1ncccc1Cn1nnnc1-c1cccc(Cl)c1Cl.Cl

// result
1: 176 to 178 °C; 2: 172 to 174 °C; 3: 146 to 148 °C; 4: 196 to 197 °C; 5: 174 to 175 °C; 6: 161 to 163 °C; 7: 104 to 105 °C
